# RP-LC retention time listing for each entry below
experimental.details: gradient 5% acetonitrile 3 min, to 50% in 2 min, to 85% in 15 min, held 3 min, 100 µL/min
run.conditions: column: Zorbax Extend-C18 2.1 x 50 mm; eluents: water / acetonitrile, 0.1% formic acid

compound | RP-LC retention time (s)
O=C(Cc1ccc(NC(=O)c2cc(=O)c3ccccc3o2)cc1)NCc1cccs1 | 739
CCn1cc(-c2ccc(F)cc2)cc1C(=O)N1CCC(C)CC1 | 1150
O=C(C1CCC1)N1CCc2sc(S(=O)(=O)Nc3cccc(Cl)c3)cc2C1 | 941
Cc1ncc2c(n1)C[C@@H]1CC[C@H]2N1S(=O)(=O)Cc1ccccc1 | 706
CCc1cccc(C)c1Nc1c(-c2ccccc2)nc2nc(C)cc(C)n12 | 816
Nc1nc(Nc2ccc3c(c2)CC[C@@H](N2CCCC2)CC3)nn1-c1cc2c(nn1)-c1ccccc1CCC2 | 760
Clc1ccc(Nc2nc3ccccc3c3nc(C4CCCCC4)[nH]c23)cc1Cl | 1130
CCN1CCN(CCNC(=O)C2CCCN(c3ncc(-c4ccc(F)cc4)cn3)C2)CC1 (stereo not given) | 632
CCCn1ccc2sc(C)c(C(=O)NCCOC)c2c1=O | 652
O=C(NCc1noc(-c2ccc(F)cc2)n1)C1CCC1 | 774
Cc1ccccc1CNC(=O)CN1C(=O)C(C)(C)c2ccccc21 | 874
CC(C)Cn1c(=O)c(C(=O)NCCCc2ccccc2)nc2cccnc21 | 888
CCn1ccc2sc(C)c(C(=O)N3CCCCCC3)c2c1=O | 760
CCc1ccc(OCc2ccccc2C(=O)Nc2ccc3nc(C)cc(N)c3c2)cc1 | 838
Cc1c(CCC(=O)NCC2CCCO2)c(=O)n2nc(-c3ccccc3)nc2n1C (stereo not given) | 668
COc1cc(Cl)c(C)cc1NC(=O)C1CCN(c2c(C(=O)N3CCOCC3)cnc3snc(C)c23)CC1 | 945
CCCn1c(=O)sc2cc(S(=O)(=O)N3CCC(C(=O)Nc4cccc(F)c4)CC3)ccc21 | 983
C[C@@H](c1ncncc1F)[C@@](O)(Cn1cncn1)c1ccc(F)cc1F | 870
Cc1ccc(Sc2nccnc2N2CCC(C(=O)NCC3CCCO3)CC2)cc1 (stereo not given) | 814
CCC(=O)Nc1ccc(-n2cnc(C(=O)N3CCC4(CC3)OCCO4)c2)nc1 | 616
